Numbers sourced from PubChem BioAssay.

Experiment: small-molecule microarray binders of probe aShh, primary screen, biochemical, biotinylated probe, 635/667 nm fluorescence (AID 1114);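 further: probe is biotin-labelled aShh protein from a stem cell growth factor screen; measures binding of labelled protein to compounds printed on the slide; score merges feature fluorescence at 667 nm with signal-to-noise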
Settings: higher = more signal
attribute measured: composite z-score
// no unit string in output, number only

Worked cases, composite z-score given:
{"compound": "CC(C)(C)OC(=O)N1[C@@H](C=C(Br)Br)COC1(C)C", "composite z-score": -0.167}
{"compound": "C=C1C(=O)C=C2CN(C(=O)c3ccccc3)[C@@](Cc3ccc(F)cc3)(C(=O)OC)[C@@H]12", "composite z-score": -0.0626}
{"compound": "Cc1cccc([C@H]2C[C@H]3C(Br)=C[C@@]2(CO)C(=O)[C@]32CO2)c1", "composite z-score": -0.0348}
{"compound": "COC(=O)[C@@]1(Cc2ccccc2)[C@H]2c3cc(C(=O)N(C)C)n(CCF)c3C[C@H]2CN1C(=O)c1ccccc1", "composite z-score": -0.305}
{"compound": "C=CC[C@H](OC(=O)Nc1ccc(SC)cc1)c1ccc(O)c(F)c1", "composite z-score": -0.0709}
{"compound": "O=C1C2C=CC(C(O)c3ccccn3)N(Nc3ccc([N+](=O)[O-])cc3)C2C(=O)N1c1ccccc1 (stereo unspecified)", "composite z-score": 0.184}
{"compound": "CC[C@@H](O[Si](C#C[Si](C(C)C)(C(C)C)C(C)C)(C(C)C)C(C)C)c1cn(Cc2cccc(Cl)c2)nn1", "composite z-score": -0.154}
{"compound": "CN(C)C(=O)[C@]1(CCS(=O)(=O)c2ccccc2)N=C(c2ccc(OCCCO)cc2)O[C@@H]1c1ccccc1CN=[N+]=[N-]", "composite z-score": -0.0891}

(Q) Tell me the measured composite z-score of O=C1NC(=O)C2C1C=CC(C(O)c1ccc(F)cc1)N2Nc1ccc(Cl)cc1Cl (stereo unspecified) , please.
(A) 0.867

---

Experiment: adipocyte viability effects, profiling panel, cell-based, 3T3-L1 adipocytes, calcein-AM fluorescence, 48 h, basal (AID 1163); further: test concentration not given here
Conditions: 3T3-L1 adipocytes viability, higher = more signal
In this section we review reported z-score values for a set of compounds.

Worked cases, z-score given:
{"compound": "C=C(CCCC)/C(=C/C[C@@H](OC(C)=O)c1ccc(OCCO)cc1)c1cc(C(=O)OC)ccc1OC", "result": -0.703}
{"compound": "CN(C)CCCC[C@@H]1NC(=O)[C@H]2C[C@@H](C(=O)NCCCCCCNC(=O)CS)[C@@H](c3cccc(OCCO)c3)N2C1=O", "result": -0.288}
{"compound": "COC(=O)[C@@]1(Cc2ccc(F)cc2)[C@H]2c3cc(C(=O)N(C)C)n(Cc4ccsc4Br)c3C[C@H]2CN1C(=O)c1ccccc1", "result": -0.291}
{"compound": "O=C1C2C=CC(C(O)C3CCCCC3)N(Nc3ccccc3F)C2C(=O)N1c1ccccc1 (configuration not stated)", "result": 0.1}

(Q) Tell me the measured z-score of COC(=O)[C@@]1(Cc2ccc(F)cc2)[C@H]2c3cc(C(=O)N4CCCC4)n(Cc4ccc(C(F)(F)F)nc4)c3C[C@H]2CN1C(=O)c1ccccc1 , please.
(A) 0.585

(Q) Can you handle C=CCOC(=O)[C@H]1[C@@H]2C(=O)O[C@@H](c3ccccc3)[C@@H](c3ccccc3)N2[C@@H](c2ccc(OCCOC(=O)[C@H]3C[C@H]4C(=O)NCC(=O)N4[C@H]3c3cccc(OCCO)c3)cc2)[C@]12C(=O)Nc1ccc(I)cc12 next?
(A) 0.656

(Q) Can you handle Cc1cccc([C@H]2C[C@H]3C(Br)=C[C@@]2(CO)C(=O)[C@]32CO2)c1 next?
(A) 0.0875

---

Assay: COS7 lysate on small-molecule microarray, probe aHis, 635 nm (AID 1123);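 further: z-score combines 667nm fluorescence intensity with signal-to-noise per printed compound spot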
Details: COS7 cell lysate, fluorescence, higher = more signal
In this section we review reported composite z-score values for a set of molecules.
// no unit string in output, number only

Worked cases, composite z-score given:
{"molecule": "C=CC[C@]1(C(=O)NCCN2CCOCC2)N=C(c2ccc(OCCCO)cc2)O[C@H]1c1ccccc1", "composite z-score": 1.51}
{"molecule": "COCCOC(=O)N1C(=O)[C@@]2(c3cc(C#CCNC(N)=O)ccc31)[C@H](c1ccc(O)cc1)N1[C@H](c3ccccc3)[C@H](c3ccccc3)OC(=O)[C@H]1[C@@H]2C(=O)N1CCc2cc(OC)c(OC)cc2C1", "composite z-score": 0.781}
{"molecule": "O=C1O[C@@H](c2ccccc2)[C@@H](c2ccccc2)N2[C@@H](c3ccc(OCCO)cc3)[C@]3(C(=O)Nc4ccc(C#CC5=CCCCC5)cc43)[C@@H](C(=O)Nc3nc4ccccc4s3)[C@H]12", "composite z-score": 1.14}
{"molecule": "[N-]=[N+]=NCc1ccccc1[C@H]1OC(c2ccc(OCCCO)cc2)=N[C@@]1(CCS(=O)(=O)c1ccccc1)C(=O)NCCN1CCOCC1", "composite z-score": 2.76}
{"molecule": "C=C(CCCC)C(=O)CC[C@@H](OC(C)=O)c1ccc(OCCO)cc1", "composite z-score": 0.143}

(Q) Tell me the measured composite z-score of C=C(COC)C(=O)CC[C@@H](OC(=O)c1ccccc1-c1ccccc1C(=O)O)c1ccccc1OCCO , please.
(A) -0.381

(Q) Can you handle Cc1ccc(N2C(=O)c3ccccc3[C@@H](C(=O)NCCN3CCOCC3)[C@@H]2c2ccc(CO)cc2)nc1 next?
(A) 0.719

(Q) Can you handle CC(C)(C)OC(=O)CC[C@@]1(C(=O)N2CCOCC2)N=C(c2ccc(OCCCO)cc2)O[C@@H]1c1ccccc1CN=[N+]=[N-] next?
(A) 3.77

(Q) Can you handle O=C1NC(=O)C2C1C=CC(C(O)C1CCCCC1)N2Nc1ccccn1 (centres undefined) next?
(A) 1.36

(Q) Can you handle COC(=O)[C@H](Cc1ccccc1)N1CC(C)(OC)O[C@@H](Cc2ccccc2)[C@H]1/C=C/C1CC1 (some centres undefined) next?
(A) 0.763

(Q) Can you handle CN1C(=O)C2CC=C(C3=CCO[C@@H]3[C@H]3CCCN3S(=O)(=O)c3ccccc3[N+](=O)[O-])CC2C1=O (some centres undefined) next?
(A) 0.205

(Q) Can you handle O=C(c1ccccc1)N1Cc2ccccc2C[C@@]2(N=C(c3ccc(OCCCO)cc3)O[C@H]2c2ccccc2)C1=O next?
(A) 2.43

(Q) Can you handle CC(C)C[C@H]1NC(=O)CNC(=O)[C@@]23C(=O)N[C@@H](Cc4ccccc4)C2[C@H](C)[C@@]2(C)O[C@H]2C3/C=C/C/C=C\CNC1=O (some centres undefined) next?
(A) 0.677

(Q) Can you handle COCCOC(=O)N1C(=O)[C@@]2(c3cc(C#CCC(C(=O)OC)C(=O)OC)ccc31)[C@H](C(N)=O)[C@H]1C(=O)O[C@H](c3ccccc3)[C@H](c3ccccc3)N1[C@@H]2c1ccccc1OCCO next?
(A) 0.882

---

In this section we review reported composite z-score values for a set of compounds.
Assay: small-molecule microarray binders of probe aWnt5a, primary screen, biochemical, biotinylated probe, 635/667 nm fluorescence (AID 1113);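 further: score merges 667 nm fluorescence intensity with signal-to-noise per printed feature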
Conditions: higher = more signal
// no unit string in output, number only

Worked cases, composite z-score given:
{"smiles str": "CC[C@@H]1C=C(C(=O)O)[C@H](c2cccc(Cl)c2)N1S(=O)(=O)c1ccc(C)cc1", "attribute measured": "composite z-score", "numeric result": -0.0758}
{"smiles str": "C[C@]1(C(=O)NCC(F)(F)F)c2ccccc2C(=O)N(Cc2cc(C(F)(F)F)cc(C(F)(F)F)c2)[C@H]1c1ccc(CO)cc1", "attribute measured": "composite z-score", "numeric result": -0.0346}
{"smiles str": "CC(C)(C)OC(=O)CC[C@]1(C(=O)N2CCOCC2)COC(c2ccc(OCCCO)cc2)=N1", "attribute measured": "composite z-score", "numeric result": -0.124}
{"smiles str": "C=CCNC(=O)[C@H]1[C@@H]2C(=O)O[C@@H](c3ccccc3)[C@@H](c3ccccc3)N2[C@@H](c2ccc(OCCO)cc2)[C@]12C(=O)N(C(=O)OCCOC)c1ccc(C#CCNC(N)=O)cc12", "attribute measured": "composite z-score", "numeric result": 0.291}

(Q) Tell me the measured composite z-score of COc1ccc(C(=O)Nc2ccc(CN3C(=O)[C@]4(O[C@H](CC(=O)N(CCO)Cc5ccccc5)[C@@H]([Si](C)(C)c5ccc(OC)cc5)[C@@H]4C)c4ccccc43)cc2)cc1 , please.
(A) 0.0354

(Q) Can you handle COC(=O)C(CC#Cc1ccc2c(c1)[C@]1(C(=O)N2)[C@H](C(=O)N2CCN(c3ncccn3)CC2)[C@H]2C(=O)O[C@H](c3ccccc3)[C@H](c3ccccc3)N2[C@@H]1c1ccc(O)cc1)C(=O)OC next?
(A) 0.436
